Measured values drawn from patent US20190284262A1 for this set.

Each entry below carries its reported Median:FITC-A.
- Target Of Assay: T1, Foxp3-7 peptide/HLA-A*02:01 complex on the cell surface (human)
- T1 construct: also called Foxp3-7/HLA-A2 complex
- Assay: flow cytometry, phage on T2 + Foxp3-7 peptide; secondary only 133, unstained 103
Parameter: Median:FITC-A

{"columns": ["Binder", "Parameter", "Result Value"],
 "data": [
  ["Clone #24 (scFv, also called EXT017-24; EXT017-24 scFv phage clone) scFv (VL-linker-VH-His/HA tag): QAVLTQPPSVSAAPGQKVTISCSGSSSNIGNNYVSWYQQLPGTAPKLLIYDNNKRPSGLPDRFSGSKSGTSATLGITGLQTGDEADYYCGTWDSSLNAVVFGGGTQLTVLSSRGGGGSGGGGSGGGGSLEMAQVQLVQSGAEVKKPGASVKVSCKASGYTFTNYYIHWVRQAPGQGLEWMGIIRPSGGITNYAQKFQGRVTMTRDTSTSTVYMELSSLRSEDTAVYYCARSWSNKLSWYNDGWGQGTLVTVSSTSGQAGQHHHHHHGAYPYDVPDYAS", "Median:FITC-A", 1040],
  ["EXT017-17 scFv phage clone (scFv, fusion to the phage coat protein not described; also called EXT017-17 phage; phage clone #17) scFv: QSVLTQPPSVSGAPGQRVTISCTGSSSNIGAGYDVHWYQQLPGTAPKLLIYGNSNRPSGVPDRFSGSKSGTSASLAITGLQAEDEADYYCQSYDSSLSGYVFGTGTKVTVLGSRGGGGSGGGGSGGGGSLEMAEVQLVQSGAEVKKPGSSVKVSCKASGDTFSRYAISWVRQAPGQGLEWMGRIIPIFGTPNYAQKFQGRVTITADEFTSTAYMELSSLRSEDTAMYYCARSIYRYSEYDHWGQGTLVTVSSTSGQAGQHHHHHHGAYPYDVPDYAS", "Median:FITC-A", 1760],
  ["EXT017-20 scFv phage clone (scFv, full-length scFv with His+HA tags; also called EXT017-20 phage) scFv: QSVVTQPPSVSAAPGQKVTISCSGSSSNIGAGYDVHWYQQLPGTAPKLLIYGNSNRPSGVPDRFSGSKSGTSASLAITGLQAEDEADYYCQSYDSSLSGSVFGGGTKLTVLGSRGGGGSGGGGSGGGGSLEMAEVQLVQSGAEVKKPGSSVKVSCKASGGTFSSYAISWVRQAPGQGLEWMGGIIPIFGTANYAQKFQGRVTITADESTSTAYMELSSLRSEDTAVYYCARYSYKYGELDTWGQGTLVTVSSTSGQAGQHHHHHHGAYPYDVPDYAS", "Median:FITC-A", 1220],
  ["Clone #10 (scFv, also called EXT017-10; EXT017-10 scFv phage clone) scFv (VL-linker-VH-His/HA tag): QAVLTQPPSASGTPGQRVTISCSGGSSNIGVNPVNWYQQLPGTAPKLLIFANYQRPSGVPDRFSGSKSGTSASLAISGLQSDDEAHYYCSTWDDSLNAWLFGGGTKLTVLGSRGGGGSGGGGSGGGGSLEMAEVQLVQSGAEVKKPGDSLRISCQGSGYSFTSYYISWVRQMPGKGLEWMGNIDPSDSYTNYSPSFQGHVTMSVDKSISTAYLQWSSLKASDIAIYYCVRHGFSNSPRLWFDTWGQGTLVTVSSTSGQAGQHHHHHHGAYPYDVPDYAS", "Median:FITC-A", 1130],
  ["EXT017-11 scFv phage clone (scFv, also called phage clone #11) scFv: NFMLTQPHSVSESPGKTVTISCTRSSGSIASNYVQWYQQRPGSAPTTVIYEDNQRPSGVPDRFSGSIDSSSNSASLTISGLKTEDEADYYCQSYDTNNYGVIFGGGTKLTVLGSRGGGGSGGGGSGGGGSLEMAQMQLVQSGAEVKKPGASVKVSCKTSGYTFNNYYMHWVRQAPGQGLEWMGIINPSGGSTNYAQKFQGRVTMTRDTSTSTVYMELSSLRSEDTAVYYCARSFDKQDIDYWGQGTLVTVSSTSGQAGQHHHHHHGAYPYDVPDYAS", "Median:FITC-A", 1690]
]}
